System: Human papillomavirus type 1a E7 protein (residues 1-88)
Assay: HPV1a E7 small-molecule binders, primary screen, biochemical, small-molecule microarray, residues 1-88, 635 nm (AID 1129)
Details: small-molecule microarray binding, fluorescence 635 nm; higher = more signal
observation_type: composite z-score

[[record]]
compound = "COC(=O)CC=C[C@@H](C)[C@@H](C=NOC[C@@H](C)[C@H](OCc1ccccc1)C(C)C)NS(=O)(=O)c1ccc(C)cc1"
test_target = "Human papillomavirus type 1a E7 protein (residues 1-88)"
result = -0.588

[[record]]
compound = "COC(=O)CC=C[C@@H](C)[C@@H](C=NOC[C@@H](O)COCc1ccco1)NS(=O)(=O)c1ccc(C)cc1"
test_target = "Human papillomavirus type 1a E7 protein (residues 1-88)"
result = -1.94

[[record]]
compound = "CCN1C(=O)[C@H]2[C@H]3[C@H](O)[C@H](O)CC(=NO[C@H](C)c4cn([C@H](CO)Cc5ccccc5)nn4)[C@@H]3CC[C@H]2C1=O"
test_target = "Human papillomavirus type 1a E7 protein (residues 1-88)"
result = 1.07

[[record]]
compound = "COC(=O)[C@H](C)NC(=O)CCC1CC(OC(=O)NCc2cccc3ccccc23)CC2(CCCC(COC(=O)NCCCN3CCCC3=O)O2)O1 (stereo partly drawn)"
test_target = "Human papillomavirus type 1a E7 protein (residues 1-88)"
result = 1.11

[[record]]
compound = "CCc1cc2c(nc1CC)CCN(CCC(C)=NO[C@@H]1O[C@H](COC(C)=O)[C@@H](OC(C)=O)[C@H](OC(C)=O)[C@H]1OC(C)=O)C2"
test_target = "Human papillomavirus type 1a E7 protein (residues 1-88)"
result = 0.286

[[record]]
compound = "CC(=O)OC[C@H]1O[C@@H](ON=C(C)CCC(=O)OC[C@H]2O[C@H](C#Cc3ccccc3)C=C[C@@H]2Oc2ccc(C)cc2)[C@H](OC(C)=O)[C@@H](OC(C)=O)[C@@H]1OC(C)=O"
test_target = "Human papillomavirus type 1a E7 protein (residues 1-88)"
result = 0.843

[[record]]
compound = "C[C@@H](c1ccccc1)N1C(=O)[C@H]2[C@H]3[C@H](O)[C@H](O)CC(=NOC[C@@H](O)COCc4ccco4)[C@H]3CC[C@H]2C1=O"
test_target = "Human papillomavirus type 1a E7 protein (residues 1-88)"
result = -1.09

[[record]]
compound = "CCOC(=O)[C@H](CC(C)C)NC(=O)CCC1CC(OC(=O)NCCc2ccc(F)cc2)CC2(CCCC(COC(=O)NCCOC)O2)O1 (stereo partly drawn)"
test_target = "Human papillomavirus type 1a E7 protein (residues 1-88)"
result = 1.04

[[record]]
compound = "COc1ccc2c(c1)O[C@@H](c1cccc(C(F)(F)F)c1)[C@H](O)C2=O"
test_target = "Human papillomavirus type 1a E7 protein (residues 1-88)"
result = 0.584

[[record]]
compound = "COC(=O)[C@H](CCSC)NC(=O)CC=C[C@@H](C)CO"
test_target = "Human papillomavirus type 1a E7 protein (residues 1-88)"
result = 0.127


Lookup: Find the recorded composite z-score belonging to CCOC(=O)[C@H](Cc1ccccc1)NC(=O)CCC1CC(OC(=O)NCCc2ccc(F)cc2)CC2(CCCC(COC(=O)NCCOc3ccccc3)O2)O1 (stereo partly drawn) and report it.
Found: 1.18

Lookup: Find the recorded composite z-score belonging to Cc1ccc(C(C)C)n1C(=O)OC(C)(C)C and report it.
Found: 0.474

Lookup: Find the recorded composite z-score belonging to CCN1C(=O)[C@H]2[C@H]3[C@H](O)[C@H](O)CC(=NO[C@@H]4O[C@H](CO)[C@@H](O)[C@H](O)[C@H]4O)[C@H]3CC[C@H]2C1=O and report it.
Found: 0.512

Lookup: Find the recorded composite z-score belonging to CCOC(=O)NN=C1C[C@@H](O)[C@@H](O)[C@@H]2[C@@H]3C(=O)N(C[C@@H]4CCCO4)C(=O)[C@@H]3CC[C@H]12 and report it.
Found: 0.317

Lookup: Find the recorded composite z-score belonging to O=C1C2=CC[C@H]3C(=O)N(C[C@@H]4CCCO4)C(=O)[C@H]3[C@H]2[C@H](O)[C@@H]2O[C@H]12 and report it.
Found: 0.611

Lookup: Find the recorded composite z-score belonging to O=C1[C@H]2[C@H]3[C@H](O)[C@H](O)CC(=NO[C@@H]4O[C@H](CO)[C@@H](O)[C@H](O)[C@H]4O)[C@@H]3CC[C@H]2C(=O)N1c1cccc(Oc2ccccc2)c1 and report it.
Found: 0.542

Lookup: Find the recorded composite z-score belonging to CCc1cc2c(nc1CC)CCN(CCC(C)=NOC[C@@H](C)[C@H](OCc1ccccc1)C(C)C)C2 and report it.
Found: -0.684

Lookup: Find the recorded composite z-score belonging to O=C1CCCC=C1C(O)C1CCCCC1 (stereo not drawn) and report it.
Found: -0.568

Lookup: Find the recorded composite z-score belonging to CCOC(=O)[C@H](Cc1ccccc1)NC(=O)CCC1CC(OC(=O)NCc2ccc3c(c2)OCO3)CC2(CCCC(COC(=O)NCCOc3ccccc3)O2)O1 (stereo partly drawn) and report it.
Found: 1.16

Data credit: PubChem BioAssay
